// provenance: patent US20220127267A1

The molecules listed here are annotated with their AC50.
Biological target: PKR WT (Homo sapiens)
Sequence (P30613 whole entry): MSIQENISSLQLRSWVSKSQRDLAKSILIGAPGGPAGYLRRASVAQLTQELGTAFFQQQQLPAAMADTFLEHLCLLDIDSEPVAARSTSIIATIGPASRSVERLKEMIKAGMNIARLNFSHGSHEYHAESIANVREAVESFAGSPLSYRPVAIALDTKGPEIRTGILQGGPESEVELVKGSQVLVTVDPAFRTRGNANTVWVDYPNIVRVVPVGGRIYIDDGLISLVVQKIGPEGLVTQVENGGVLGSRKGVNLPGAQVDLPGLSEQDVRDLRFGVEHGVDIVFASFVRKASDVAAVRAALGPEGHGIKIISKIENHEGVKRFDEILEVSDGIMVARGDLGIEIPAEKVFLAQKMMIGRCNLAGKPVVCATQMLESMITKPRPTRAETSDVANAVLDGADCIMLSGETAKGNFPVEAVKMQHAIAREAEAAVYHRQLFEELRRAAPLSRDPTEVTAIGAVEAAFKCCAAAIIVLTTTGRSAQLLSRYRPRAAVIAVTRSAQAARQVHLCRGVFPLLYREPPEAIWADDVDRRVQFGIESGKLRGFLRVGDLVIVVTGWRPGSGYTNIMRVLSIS
Assay: PKR enzyme assay (WT), LDH-coupled, absorbance 340 nm
Type: biochemical
Conditions: wild type PKR enzyme activation

For the record Cn1c2cc(Cc3cscn3)sc2c2cnn(Cc3ccccn3)c(=O)c21 [Cpd 7] , what value of AC50 is listed for PKR WT (Homo sapiens)?
< 300 nM

For the record COc1cccc(Cn2ncc3c4cccnc4n(C)c3c2=O)c1 [Cpd 66] , what value of AC50 is listed for PKR WT (Homo sapiens)?
> 800 nM

For the record Cn1c2cc(S(C)(=O)=O)ccc2c2cnn(Cc3cccc(C(N)=O)c3)c(=O)c21 [Cpd 53] , what value of AC50 is listed for PKR WT (Homo sapiens)?
301 to 800 nM

For the record COc1cccc(Cn2ncc3c4nn(Cc5ccccc5)cc4n(C)c3c2=O)c1 [Cpd 28] , what value of AC50 is listed for PKR WT (Homo sapiens)?
301 to 800 nM

For the record Cn1c2cc(S(=O)(=O)c3ccccc3)ccc2c2cnn(Cc3cccc(C(N)=O)c3)c(=O)c21 [Cpd 54] , what value of AC50 is listed for PKR WT (Homo sapiens)?
301 to 800 nM

For the record COc1cccc(Cn2ncc3c4c(Br)cccc4n(C)c3c2=O)c1 [Cpd 32] , what value of AC50 is listed for PKR WT (Homo sapiens)?
> 800 nM

For the record Cn1c2ccc(S(=O)(=O)c3ccccc3)cc2c2cnn(Cc3cccc(C(N)=O)c3)c(=O)c21 [Cpd 57] , what value of AC50 is listed for PKR WT (Homo sapiens)?
301 to 800 nM

For the record Cc1cccc(Cn2ncc3c4sc(Cc5ncco5)cc4n(C)c3c2=O)c1 [Cpd 5] , what value of AC50 is listed for PKR WT (Homo sapiens)?
< 300 nM

For the record COc1cccc(Cn2ncc3c4cc(C(F)(F)F)ccc4n(C)c3c2=O)c1 [Cpd 63] , what value of AC50 is listed for PKR WT (Homo sapiens)?
> 800 nM

For the record C=Cc1ccc2c(c1)c1cnn(Cc3cccc(OC)c3)c(=O)c1n2C [Cpd 39] , what value of AC50 is listed for PKR WT (Homo sapiens)?
> 800 nM

For the record Cn1c2cc(Cc3cn[nH]c3)sc2c2cnn(Cc3cccc4[nH]ncc34)c(=O)c21 [Cpd 8] , what value of AC50 is listed for PKR WT (Homo sapiens)?
< 300 nM

For the record COc1cccc(Cn2ncc3c4cc(C#N)ccc4n(C)c3c2=O)c1 [Cpd 45] , what value of AC50 is listed for PKR WT (Homo sapiens)?
> 800 nM

For the record COc1cccc(Cn2ncc3c4ncccc4n(C)c3c2=O)c1 [Cpd 65] , what value of AC50 is listed for PKR WT (Homo sapiens)?
> 800 nM

For the record CCc1ccc2c3cnn(Cc4cccc(OC)c4)c(=O)c3n(C)c2c1 [Cpd 43] , what value of AC50 is listed for PKR WT (Homo sapiens)?
> 800 nM

For the record COc1cccc(Cn2ncc3c4ccc(C#N)cc4n(C)c3c2=O)c1 [Cpd 47] , what value of AC50 is listed for PKR WT (Homo sapiens)?
301 to 800 nM

For the record COc1cccc(Cn2ncc3c4cc(Cc5ccccc5)ccc4n(C)c3c2=O)c1 [Cpd 34] , what value of AC50 is listed for PKR WT (Homo sapiens)?
> 800 nM

For the record COc1cccc(Cn2ncc3c(c(C(N)=O)n4cc(C)sc34)c2=O)c1 [Cpd 12] , what value of AC50 is listed for PKR WT (Homo sapiens)?
< 300 nM

For the record Cn1cc(S(=O)(=O)c2ccc3c4cnn(Cc5cccc(C(N)=O)c5)c(=O)c4n(C)c3c2)cn1 [Cpd 56] , what value of AC50 is listed for PKR WT (Homo sapiens)?
301 to 800 nM

For the record COc1cccc(CN2Cc3c(n(C)c4cc(C)sc34)C2=O)c1 [Cpd 1] , what value of AC50 is listed for PKR WT (Homo sapiens)?
> 800 nM

For the record COc1cccc(Cn2ncc3c(c(C#N)n4cc(C)sc34)c2=O)c1 [Cpd 11] , what value of AC50 is listed for PKR WT (Homo sapiens)?
< 300 nM

For the record COc1cccc(Cn2ncc3c4ccc(Cc5ccccc5)cc4n(C)c3c2=O)c1 [Cpd 60] , what value of AC50 is listed for PKR WT (Homo sapiens)?
> 800 nM

For the record COc1cccc(Cn2ncc3c(c(C)n4cc(C)sc34)c2=O)c1 [Cpd 9] , what value of AC50 is listed for PKR WT (Homo sapiens)?
< 300 nM

For the record Cn1ccc(Cn2ncc3c4ccc(Cc5cscn5)cc4n(C)c3c2=O)n1 [Cpd 58] , what value of AC50 is listed for PKR WT (Homo sapiens)?
< 300 nM
